B1: SCNN1D (parent)
chain: FLGHHSFSVRPGTEATISIREDEV

Variants of: B1
assay-summary: protein stability index of a GFP-peptide fusion (GPS, HEK-293T) (PSI 1-6); higher = more stable;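 note: lentivirally expressed fusions sorted by FACS into six bins by GFP to DsRed ratio, PSI derived from sequencing read proportions per bin multiplied by bin number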
stated-conditions: c terminus: a fixed tail appended
measure: protein stability index
Output: the number by itself.

# annotated cases, reported protein stability index shown
D22V : 1.57
F7E : 4.81

Per the records, this variant ( S6Q ) has protein stability index equal to 1.76
